Biological target: human P-Selectin-IgG-chimera (Homo sapiens)
Construct: fused on or other part: human IgG Fc part, fused on as a capture and dimerising handle (captured by goat anti human Fc antibody)
Sequence (P16109 42-195 limits assumed): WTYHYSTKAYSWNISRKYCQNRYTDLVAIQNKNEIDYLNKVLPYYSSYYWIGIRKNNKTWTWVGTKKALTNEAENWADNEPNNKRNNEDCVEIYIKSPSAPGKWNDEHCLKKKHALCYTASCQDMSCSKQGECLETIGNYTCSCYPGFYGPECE
Assay: Sialyl Lewis^X Tyrosine Sulfate Assay (sLe^X TSA), P-selectin
Conditions: binding of P-selectin chimera to sLe^X-tyrosine sulfate polyacrylamide
REPORTED METRIC: pIC50
// pIC50 here means minus log10 of the molar concentration (mol/L)

Exercise: Consider the molecule CCN(CC)C(=O)/C(C#N)=C/c1cc(O)c(O)c([N+](=O)[O-])c1 and give its measured pIC50.
Key: 3.72

* * *

Biological target: human L-Selectin-IgG-chimera (Homo sapiens, UniProt P14151)
Construct: fused on or other part: human IgG Fc part, fused on as a capture and dimerising handle (captured by goat anti human Fc antibody)
Sequence (P14151 39-318 limits assumed): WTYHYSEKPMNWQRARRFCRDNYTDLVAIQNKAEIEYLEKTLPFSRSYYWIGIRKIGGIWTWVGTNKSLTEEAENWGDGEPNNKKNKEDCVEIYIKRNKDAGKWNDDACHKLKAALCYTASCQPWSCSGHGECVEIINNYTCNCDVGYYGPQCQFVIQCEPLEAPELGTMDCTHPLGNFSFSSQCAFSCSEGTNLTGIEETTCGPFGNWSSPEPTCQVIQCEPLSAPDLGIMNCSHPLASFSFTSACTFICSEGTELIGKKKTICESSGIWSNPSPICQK
Test: Sialyl Lewis^X Tyrosine Sulfate Assay (sLe^X TSA), L-selectin
Settings: binding of L-selectin chimera to sLe^X-tyrosine sulfate polyacrylamide
REPORTED METRIC: IC50 (µM)
Dear colleague, please return just the value in µM, with no unit written.

Exercise: Consider the molecule CCN(CC)C(=O)/C(C#N)=C/c1cc(O)c(O)c([N+](=O)[O-])c1 [compound of formula (I)] and give its measured IC50.
Key: 1250
